test-summary: qHTS Assay for Modulators of miRNAs and/or Inhibitors of miR-21
condition-parameters: HeLa miR-21-FLuc reporter, luciferase luminescence, 48 h; actives lower the signal
Excerpt: MLSCN Grant: 1 R21 NS059478-01 Assay Provider: Qihong Huang, The Wistar Institute NCGC Assay Overview: MicroRNAs (miRNAs) are endogenously encoded small (~20-25 nucleotides), nonprotein-coding RNAs that are involved in post-transcriptional repression of target messenger RNAs (mRNAs) (Le and Hannon, 2004). […]
Out of some 340,000 compounds screened, about 3,300 (0.97%) were called active. Inconclusive results (about 9%) are left out. This is one part of the list.
Entries and their Potency values follow.

The examples below pair each entry with its known result.
COc1ccc2oc(=O)c(C(=O)N3CCN(c4ccccc4C)CC3)cc2c1: 2.07 µM (active)
O=C(c1cc2ccccc2oc1=O)N1CCOCC1: 16.5 µM (active)
COc1ccc(/C(N)=N/OC(=O)C2CCCCC2)cc1OC: 2.93 µM (active)
N/C(=N\OC(=O)COc1ccc(Cl)cc1Cl)c1ccncc1: 0.585 µM (active)

Provide Potency value for the following compound: N/C(=N\OC(=O)COc1ccc(Cl)cc1Br)c1ccncc1
1.65 µM (active)

Output measured Potency for this item: Brc1ccc2oc(-c3ccn[nH]3)cc2c1
2.93 µM (active)

Specify reported Potency for the compound shown: O=C(Nc1ccccc1)c1cc(-c2ccccc2Cl)no1
7.36 µM (active)

Item O=C(Nc1ccccc1)OCc1cc(-c2ccccc2Cl)on1 : provide Potency
11.7 µM (active)

Please give measured Potency of the following entry: CCCCNC(=O)c1cccc(NC(=O)c2nsc3ccccc23)c1
2.93 µM (active)

* * *

test-summary: qHTS Assay for Modulators of miRNAs and/or Inhibitors of miR-21
condition-parameters: HeLa miR-21-FLuc reporter, luciferase luminescence, 48 h; actives lower the signal
Text: MLSCN Grant: 1 R21 NS059478-01 Assay Provider: Qihong Huang, The Wistar Institute NCGC Assay Overview: MicroRNAs (miRNAs) are endogenously encoded small (~20-25 nucleotides), nonprotein-coding RNAs that are involved in post-transcriptional repression of target messenger RNAs (mRNAs) (Le and Hannon, 2004). […]
About 3,300 (0.97%) of roughly 340,000 compounds were called active. Inconclusive results (about 9%) are left out. Some of the results follow.
Listed next: entries and their corresponding Potency.

Below are worked cases with known answers.
CCOC(=O)c1c(C)oc2c1c(CN1CCN(C(=O)OCC)CC1)c(O)c1ccccc12: 14.7 µM (active)
COc1ccccc1C1N=C(c2ccccc2C)NO1 (centres undefined): 7.36 µM (active)
Cc1snc(SCC(=O)c2ccc(F)cc2)c1C#N: 4.65 µM (active)
O=c1[nH]cnc2scc(-c3ccc(-c4ccccc4)cc3)c12: 0.521 µM (active)
COc1ccc(-c2cn3cc(Cl)ccc3n2)cc1OC: 13.1 µM (active)
COc1cccc(C(=O)NN2C(=S)N(c3ccccc3)C(=O)C2CC(N)=O)c1 (centres undefined): 6.56 µM (active)

Quick one: give measured Potency for COc1ccc(N=Nc2ccc(N)nc2N)cc1
2.61 µM (active)

Output measured Potency for this item: Cc1nc2ccc(NC(=O)c3ccc4ccccc4n3)cc2s1
3.69 µM (active)

Annotate the compound COc1ccccc1C(=O)OCc1nc(N)nc(Nc2ccccc2C)n1 with its measured Potency.
18.5 µM (active)

Answer with the recorded Potency for the compound listed here: O=C(Nc1nc2c(F)cc(F)cc2s1)c1ccc2c(c1)OCCO2
0.0826 µM (active)

* * *

Below is a list of entries, each paired with its recorded Potency value.
test-summary: qHTS Assay for Modulators of miRNAs and/or Inhibitors of miR-21
condition-parameters: HeLa miR-21-FLuc reporter, luciferase luminescence, 48 h; actives lower the signal
In all, about 340,000 compounds went through this assay and about 3,300 (0.97%) were called active. Inconclusive results (about 9%) are left out. The list shows a part of the results.

Example cases with answers are listed next.
CCOc1ccc(NC(=O)NC2CCCCCCC2)cc1: 2.93 µM (active)
CC(C)c1ccc(NC(=O)Cn2ncc3ccccc32)cc1: 7.36 µM (active)
Cc1cccc(NC(=S)NNC(=O)c2ccc3c(c2)OCO3)c1: 0.464 µM (active)
Cc1ccsc1C(=O)Nc1ccc(OCc2ccccc2)cc1: 1.65 µM (active)
CCOc1ccc2nc(C(=O)N3CCCC(C)C3)sc2c1 (stereo unspecified): 3.29 µM (active)

We next turn to a different molecule, shown below.
Respond only with Potency recorded for COc1cccc(C2(O)CC(C(F)(F)F)=NN2C(=O)c2ccccn2)c1 (stereo unspecified)
13.1 µM (active)

* * *

test-summary: qHTS Assay for Modulators of miRNAs and/or Inhibitors of miR-21; further: potency means the concentration at half of the fitted maximal effect; nearly all actives have a fitted effect of over 55% in size
condition-parameters: HeLa miR-21-FLuc reporter, luciferase luminescence, 48 h; actives lower the signal
In all, about 340,000 compounds went through this assay and about 3,300 (0.97%) were called active. About 9% were inconclusive and are not listed. Some of the results follow.
# Potency listing for each entry below

Clc1ccc(/C=N/Nc2ncnc3nc[nH]c23)cc1: 1.65 µM (active)
COc1cc(N/N=C/c2ccc(N(C)C)cc2)ncn1: 0.208 µM (active)
CCOC(=O)/C(N=Nc1ccc2c(c1)OCO2)=C(\C)O: 4.65 µM (active)
CC(C)CC(=O)Nc1ccc2nn(-c3ccccc3)nc2c1: 0.656 µM (active)
COc1cccc2oc3ccc(C#CC4(N)CCCCC4)cc3c(=O)c12: 7.36 µM (active)

Lab note: next molecule to report on.
Name the recorded Potency of the molecule listed here: Cc1ccccc1OCCSc1nnc(C)n1-c1ccccc1
14.7 µM (active)

* * *

test-summary: qHTS Assay for Modulators of miRNAs and/or Inhibitors of miR-21; further: potency means the concentration at half of the fitted maximal effect; nearly all actives have a fitted effect of over 55% in size
condition-parameters: HeLa miR-21-FLuc reporter, luciferase luminescence, 48 h; actives lower the signal
In all, about 340,000 compounds went through this assay and about 3,300 (0.97%) were called active. Not shown: some 9% with an inconclusive outcome. This is one part of the list.
Quick reference: Potency of the listed items.

Before answering, review these 4 worked examples.
COc1cccc(/C=C(/CC(=O)Nc2ccc(N3CCOCC3)cc2)c2nc3ccccc3s2)c1: 16.5 µM (active)
Cc1ccc2c(c1)COc1c3ccc(C(=O)N4CCCCC4)cc3nn1-2: 3.69 µM (active)
C/C(=N\NC(=O)c1sccc1C)c1ccncc1: 2.93 µM (active)
Cc1ccc(-c2cc(C(=O)Nc3cccnc3)[nH]n2)c(O)c1C: 2.93 µM (active)

Specify Potency for C/C(=N\Nc1ccc(C)c(Cl)c1)c1cccnc1 and stop.
13.1 µM (active)

Identify measured Potency associated with O=C(c1ccc2c3n(nc2c1)-c1ccc(Cl)cc1CO3)N1CCOCC1
5.21 µM (active)

* * *

test-summary: qHTS Assay for Modulators of miRNAs and/or Inhibitors of miR-21; further: potency means the concentration at half of the fitted maximal effect; nearly all actives have a fitted effect of over 55% in size
condition-parameters: HeLa miR-21-FLuc reporter, luciferase luminescence, 48 h; actives lower the signal
The whole screen tested about 340,000 compounds, of which about 3,300 (0.97%) were called active. Inconclusive results (about 9%) are left out. This is one part of the list.
Below, each entry is listed alongside its reported Potency.

Here's what some known entries look like.
Cc1cc(C(=O)CSc2ncccn2)c(C)n1-c1cccc(F)c1: 0.736 µM (active)
COc1cc(Cl)c(C)cc1NC(=O)c1cccc(OC)c1OC: 5.21 µM (active)
O=C(Cn1cnc2ccccc2c1=O)c1ccc2ccccc2c1: 7.36 µM (active)
O=C(Cc1cccs1)NCc1cc(Cl)cc(Cl)c1: 14.7 µM (active)
COc1ccc(NC(=S)N2CCc3ccccc32)cc1OC: 16.5 µM (active)
CC1CN(C(=O)N2CCC(C(=O)NCc3cccs3)CC2)c2ccccc2O1 (centres undefined): 1.47 µM (active)
Cc1ccc(C(=O)Cn2cnc3ccccc3c2=O)cc1: 5.85 µM (active)
COC(=O)c1sc(-c2ccc(C(C)(C)C)cc2)cc1NC(=O)COCC(=O)O: 11.7 µM (active)

Identify the reported Potency for the following entry. Cn1c(CCN2CCCCCC2)nc2cc(NC(=O)Nc3ccccc3)ccc21
7.36 µM (active)

Return reported Potency. Input molecule: CC(=O)/C=C(\C)N=Nc1c(O)[nH]c2ccccc12
18.5 µM (active)

Provide one value: measured Potency of COc1ccccc1C(=O)N/N=C/c1cnc2ccccc2n1
11.7 µM (active)

Fill in Potency for record COc1ccc(C(=O)c2oc3ccc(OC)cc3c2N)cc1
7.36 µM (active)

* * *

Below, each entry is listed alongside its reported Potency.
test-summary: qHTS Assay for Modulators of miRNAs and/or Inhibitors of miR-21; further: potency means the concentration at half of the fitted maximal effect; nearly all actives have a fitted effect of over 55% in size
condition-parameters: HeLa miR-21-FLuc reporter, luciferase luminescence, 48 h; actives lower the signal
The whole screen tested about 340,000 compounds, of which about 3,300 (0.97%) were called active. Another 9% or so got no clear call; they are omitted. This is one part of the list.

CCCc1ccc(OCc2ccc(C(=O)OC)o2)c(OC)c1: 7.36 µM (active)
CC(=O)c1sc(N/N=C\c2ccc(N(C)C)cc2)nc1C: 0.927 µM (active)

Could you please provide reported Potency for COc1ccc(OCC(=O)Nc2ccc(-c3nc4cc(C)c(C)cc4o3)cc2)cc1 ? Thanks!
0.131 µM (active)

Name the recorded Potency of the item O=C(COc1ccc(Cl)cc1)Nc1ccc(-c2nc3cc(Cl)ccc3o2)c(O)c1 in your answer.
7.36 µM (active)

Given the compound COC(=O)c1ccc(COc2ccc(C(C)(C)C)cc2)o1 , write its reported Potency.
10.4 µM (active)

Indicate the recorded Potency value for this compound: COC(=O)c1ccc(COc2ccc(C)c(C)c2)o1
14.7 µM (active)

Look up and report measured Potency for this entry: COC(=O)c1ccc(-c2ccc(Cl)cc2)nc1C
1.47 µM (active)

For the compound COc1ccc(OCC(=O)Nc2ccc(-c3nc4cc(Cl)ccc4o3)cc2)cc1 , report Potency.
2.93 µM (active)

Report Potency for CCc1cc(C(=O)NNC(=S)Nc2cccc(C)c2)cs1
4.14 µM (active)

For the compound CC(=O)c1sc(N/N=C\c2ccc(C)cc2)nc1C , give its measured Potency value.
3.29 µM (active)

Report Potency for Cc1cccc(NC(=S)NNC(=O)c2csc(C)c2)c1
2.93 µM (active)

Fill in reported Potency for this entry: CCOC(=O)c1ccc(-c2ccc3c(c2)CCC3)nc1C
1.85 µM (active)

Cited source for all entries: PubChem BioAssay AID2289
